Values compiled from patent US10596223B2.

Target: hJNK3 (Homo sapiens, UniProt P53779)
Sequence (P53779 whole entry, looked up): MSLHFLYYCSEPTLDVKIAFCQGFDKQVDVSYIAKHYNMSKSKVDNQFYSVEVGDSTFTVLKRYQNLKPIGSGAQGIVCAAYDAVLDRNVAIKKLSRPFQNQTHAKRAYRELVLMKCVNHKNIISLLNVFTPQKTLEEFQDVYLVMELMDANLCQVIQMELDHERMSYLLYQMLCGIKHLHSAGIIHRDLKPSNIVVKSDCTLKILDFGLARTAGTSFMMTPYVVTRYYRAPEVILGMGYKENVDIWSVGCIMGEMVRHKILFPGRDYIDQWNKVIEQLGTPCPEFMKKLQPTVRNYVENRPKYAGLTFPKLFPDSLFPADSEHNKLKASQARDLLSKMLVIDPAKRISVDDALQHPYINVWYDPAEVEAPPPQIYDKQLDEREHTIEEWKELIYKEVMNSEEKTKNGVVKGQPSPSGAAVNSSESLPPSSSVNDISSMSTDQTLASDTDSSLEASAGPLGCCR
Assay: hJNK3 | IC50
PROPERTY MEASURED: IC50 (nM)
Reply numerically in nM, unit not repeated.

Reported IC50 for H-RPKRPTTLNLF-NH2 [SEQ ID NO: 193] was 67.7

----------
Target: hJNK2 (Homo sapiens)
Sequence (P45984 whole entry, looked up): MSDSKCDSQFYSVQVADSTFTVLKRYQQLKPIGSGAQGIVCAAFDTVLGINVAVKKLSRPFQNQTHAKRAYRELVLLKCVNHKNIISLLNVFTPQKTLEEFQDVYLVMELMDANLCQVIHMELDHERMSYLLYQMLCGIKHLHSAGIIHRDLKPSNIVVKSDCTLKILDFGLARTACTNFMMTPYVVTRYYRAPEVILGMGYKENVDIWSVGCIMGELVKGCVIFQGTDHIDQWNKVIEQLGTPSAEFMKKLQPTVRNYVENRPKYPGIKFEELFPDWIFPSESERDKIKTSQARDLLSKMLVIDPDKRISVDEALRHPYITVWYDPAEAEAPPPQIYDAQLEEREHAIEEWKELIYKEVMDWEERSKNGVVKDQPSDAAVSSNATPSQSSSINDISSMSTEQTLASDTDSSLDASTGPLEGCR
Square brackets hold non-standard residues; d marks the D form. Peptide text beside a SMILES is read from it.
PROPERTY MEASURED: IC50 (nM)
Reply numerically in nM, unit not repeated.

Reported IC50 for CC(C)C[C@H](NC(=O)[C@@H](NC(=O)[C@@H](NC(=O)[C@@H]1CCCN1C(=O)[C@H](CCCNC(=N)N)NC(=O)[C@H](CCCCN)NC(=O)[C@@H]1CCCN1C(=O)[C@@H](N)CCCNC(=N)N)[C@@H](C)O)[C@@H](C)O)C(=O)N[C@H](CCCNC(=N)N)C(=O)N[C@@H](CC(C)C)C(=O)N[C@@H](Cc1ccccc1)C(N)=O [SEQ ID NO: 6] (H-RPKRPTTL[dR]LF-NH2) was 359

Reported IC50 for CC(C)C[C@H](NC(=O)[C@H](CC(N)=O)NC(=O)[C@H](CC(C)C)NC(=O)[C@@H](NC(=O)[C@@H](NC(=O)[C@@H]1CCCN1C(=O)[C@H](CCCNC(=N)N)NC(=O)[C@H](CCCCN)NC(=O)[C@@H]1CCCN1C(=O)[C@@H](N)CCCNC(=N)N)[C@@H](C)O)[C@@H](C)O)C(=O)N[C@H](Cc1ccccc1)C(N)=O [SEQ ID NO: 7] (H-RPKRPTTLNL[dF]-NH2) was 278

Reported IC50 for CC(C)C[C@H](NC(=O)[C@H](CC(N)=O)NC(=O)[C@H](CC(C)C)NC(=O)[C@@H](NC(=O)[C@@H](NC(=O)[C@@H]1CCCN1C(=O)[C@H](CCCNC(=N)N)NC(=O)[C@@H](CCCCN)NC(=O)[C@@H]1CCCN1C(=O)[C@@H](N)CCCNC(=N)N)[C@@H](C)O)[C@@H](C)O)C(=O)N[C@@H](Cc1ccccc1)C(N)=O [SEQ ID NO: 3] (H-RP[dK]RPTTLNLF-NH2) was 1210

Reported IC50 for CC(C)C[C@H](NC(=O)[C@H](CC(N)=O)NC(=O)[C@H](CC(C)C)NC(=O)[C@@H](NC(=O)[C@@H](NC(=O)[C@@H]1CCCN1C(=O)[C@H](CCCNC(=N)N)NC(=O)[C@H](CCCCN)NC(=O)[C@@H]1CCCN1C(=O)[C@H](N)CCCNC(=N)N)[C@@H](C)O)[C@@H](C)O)C(=O)N[C@@H](Cc1ccccc1)C(N)=O [SEQ ID NO: 2] (H-[dR]PKRPTTLNLF-NH2) was 424
